Every entry's value here was drawn from PubChem BioAssay (NCI).

# System: SK-MEL-2 melanoma
# protocol: NCI-60 one-dose screen, 48 h (100 = growth as untreated, 0 = no growth, -100 = all killed)
# reported-conditions: 10 µM unless noted
The panel holds about 83,000 compounds, 20% with a hit somewhere; the sample as a whole holds those more often.
We begin with a simple list: items and their reported growth.
Report the figure in % without appending any unit label.

{"columns": ["compound", "result-unit", "growth"],
 "data": [
  ["CC(=O)N(C)C1=Nc2ccc(Cl)cc2C(c2ccccc2)=[N+]([O-])C1", "%", 95.8]
]}

Task: Quick check: growth of O=c1cc[nH]c(=O)o1 ?
Result: 93.3
